Tested on: ES-2
Method: Antiproliferative SRB assay, ES-2
Assay type: cell-based
Cond: Homo sapiens, ES-2, 72 h, Cervical cancer (footnote f), mean ± SEM
pIC50: −log10 of the molar value.

- Compound: "COc1cccc2c1C(=O)c1c(O)c3c(c(O)c1C2=O)C[C@@](O)(C(=O)CO)C[C@@H]3O[C@H]1C[C@H](N)[C@H](O)[C@H](C)O1 [Doxorubicin, doxorubicin, reference compound]"
  pIC50: 7.49
- Compound: "Cc1cc(=O)n2c3c(c4c(cc13)c1ccccc1c(=O)n4C)OCC2CN1CCCC1 (stereo not drawn)"
  pIC50: 7.64
- Compound: "Cc1cc(=O)n2c3c(c4c(cc13)c1ccccc1c(=O)n4C)OCC2CN (stereo not drawn)"
  pIC50: 7.55
- Compound: "Cc1cc(=O)n(C)c2c3c4c(cc12)c(C)cc(=O)n4C(CN1CCCCC1)CO3 (stereo not drawn)"
  pIC50: 7.66
- Compound: "Cc1cc(=O)n(C)c2c3c4c(cc12)c(C)cc(=O)n4C(CN1CCCC1)CO3 (stereo not drawn)"
  pIC50: 7.77
- Compound: "Cc1cc(=O)n2c3c(c4c(cc13)c1ccccc1c(=O)n4C)OCC2CN1CCCCC1 (stereo not drawn)"
  pIC50: 7.17

---

We begin with a simple list: items and their reported pIC50.
Test system: HeLa
Method: Antiproliferative SRB assay, HeLa
Format: cell-based
Cond: Homo sapiens, 72 h, Ovarian cancer (footnote e), mean ± SEM
pIC50: −log10 of the molar value.

- Molecule: "Cc1cc(=O)n2c3c(c4c(cc13)c1ccccc1c(=O)n4C)OCC2CN1CCCCC1 (stereo not drawn)"
  pIC50: 6.87
- Molecule: "COc1cccc2c1C(=O)c1c(O)c3c(c(O)c1C2=O)C[C@@](O)(C(=O)CO)C[C@@H]3O[C@H]1C[C@H](N)[C@H](O)[C@H](C)O1 [Doxorubicin, doxorubicin, reference compound]"
  pIC50: 7.62
- Molecule: "Cc1cc(=O)n2c3c(c4c(cc13)c1ccccc1c(=O)n4C)OCC2CN1CCCC1 (stereo not drawn)"
  pIC50: 7.34
- Molecule: "Cc1cc(=O)n(C)c2c3c4c(cc12)c(C)cc(=O)n4C(CN1CCCC1)CO3 (stereo not drawn)"
  pIC50: 7.57
- Molecule: "Cc1cc(=O)n(C)c2c3c4c(cc12)c(C)cc(=O)n4C(CN1CCCCC1)CO3 (stereo not drawn)"
  pIC50: 7.34
- Molecule: "Cc1cc(=O)n2c3c(c4c(cc13)c1ccccc1c(=O)n4C)OCC2CN (stereo not drawn)"
  pIC50: 7.25

---

System: Jurkat
Method: Cell viability Alamar Blue assay, Jurkat
Format: cell-based
Cond: Homo sapiens, 72 h, Leukemia, mean ± SEM
Source text: Topoisomerase inhibitors such as DOX are used as single agent and in combination therapy to treat a wide-range of cancer types.
One threshold, 30 nM, splits the recorded IC50 values: lower ones are True, equal or higher ones are False.

- Molecule: "COc1cccc2c1C(=O)c1c(O)c3c(c(O)c1C2=O)C[C@@](O)(C(=O)CO)C[C@@H]3O[C@H]1C[C@H](N)[C@H](O)[C@H](C)O1 [Doxorubicin, doxorubicin, reference compound]"
  Class Assignment: "True"
- Molecule: "Cc1cc(=O)n2c3c(c4c(cc13)c1ccccc1c(=O)n4C)OCC2CN1CCCC1 (stereo not drawn)"
  Class Assignment: "False"
- Molecule: "Cc1cc(=O)n2c3c(c4c(cc13)c1ccccc1c(=O)n4C)OCC2CN (stereo not drawn)"
  Class Assignment: "False"
- Molecule: "Cc1cc(=O)n2c3c(c4c(cc13)c1ccccc1c(=O)n4C)OCC2CN1CCCCC1 (stereo not drawn)"
  Class Assignment: "False"
- Molecule: "Cc1cc(=O)n(C)c2c3c4c(cc12)c(C)cc(=O)n4C(CN1CCCCC1)CO3 (stereo not drawn)"
  Class Assignment: "False"
- Molecule: "Cc1cc(=O)n(C)c2c3c4c(cc12)c(C)cc(=O)n4C(CN1CCCC1)CO3 (stereo not drawn)"
  Class Assignment: "True"

---

Tested on: E. coli
Method: Antibacterial MIC, microbroth dilution, E. coli
Type: cell-based
We begin with a simple list: items and their reported E. coli MIC.

- Compound: "Cc1cc(=O)n(C)c2c3c4c(cc12)c(C)cc(=O)n4C(CN)CO3 (stereo not drawn) [Compound 19]"
  E. coli MIC: ">16 µg/mL"
- Compound: "Cc1cc(=O)n2c3c(c4c(cc13)c1ccccc1c(=O)n4C)OCC2CN (stereo not drawn) [Compound 15]"
  E. coli MIC: "0.25 µg/mL"
- Compound: "Cc1cc(=O)n2c3c(c4c(cc13)c1ccccc1c(=O)n4C)OCC2CN (stereo not drawn) [Compound 16]"
  E. coli MIC: "0.25 µg/mL"
- Compound: "Cc1cc(=O)n(C)c2c3c4c(cc12)c(C)cc(=O)n4C(CN)CO3 (stereo not drawn) [Compound 9]"
  E. coli MIC: "0.5 µg/mL"
- Compound: "Cc1cc(=O)n2c3c(c4c(cc13)c1ccccc1c(=O)n4C)OCC2CN (stereo not drawn) [Compound 17]"
  E. coli MIC: "2 µg/mL"
- Compound: "Cc1cc(=O)n(C)c2c3c4c(cc12)c(C)cc(=O)n4C(CN)CO3 (stereo not drawn) [Compound 18]"
  E. coli MIC: "0.25 µg/mL"

Each recorded value in this set is attributed to patent US11274106B2.
